// data source = the RNAGym collection of RNA variant scans (doi:10.7554/elife.90254)

B1: OR4K15 (parent)
chain: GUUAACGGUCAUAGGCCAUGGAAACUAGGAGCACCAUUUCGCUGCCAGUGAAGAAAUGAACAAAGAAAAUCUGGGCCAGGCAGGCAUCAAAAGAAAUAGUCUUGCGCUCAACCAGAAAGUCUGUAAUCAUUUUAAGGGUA

# Variants of: B1
# method-description: self-cleavage, relative activity (ratio to wild type); higher = more cleavage; in vitro, sequencing; the parent is a self-cleaving ribozyme
property: self-cleavage
Respond numerically, and do not add a unit to the figure.

mutation-descriptor	self-cleavage
A67G A126G	1.21

// query Could you share which self-cleavage value was measured for G8A U70C ?
// result 1.22

// query Could you share which self-cleavage value was measured for U103C U122A ?
// result 1.14

// query Could you share which self-cleavage value was measured for A95G A118U ?
// result 1.09

// query Could you share which self-cleavage value was measured for A30G G75C ?
// result 0.19

// query Could you share which self-cleavage value was measured for U72A A140G ?
// result 0.32

// query Could you share which self-cleavage value was measured for A91G G119U ?
// result 0.81

// query Could you share which self-cleavage value was measured for U43A A126G ?
// result 1.25

// query Could you share which self-cleavage value was measured for G50A G138A ?
// result 1.51

// query Could you share which self-cleavage value was measured for G7C A47U ?
// result 1.4

// query Could you share which self-cleavage value was measured for C16G ?
// result 0.85

// query Could you share which self-cleavage value was measured for G15A A111G ?
// result 0.01

// query Could you share which self-cleavage value was measured for A118G A126G ?
// result 0.83

// query Could you share which self-cleavage value was measured for G75A U122C ?
// result 0.08

// query Could you share which self-cleavage value was measured for A118U U139A ?
// result 0.6

// query Could you share which self-cleavage value was measured for U133C A135U ?
// result 1.71

// query Could you share which self-cleavage value was measured for G44A A54G ?
// result 1.57

// query Could you share which self-cleavage value was measured for A96U G99A ?
// result 0.44

// query Could you share which self-cleavage value was measured for A63G U103C ?
// result 1.38

// query Could you share which self-cleavage value was measured for A89G U122C ?
// result 1.03
